Heat shock protein HSP 90-alpha (Homo sapiens, UniProt P07900): reported Kd for various compounds.
Answers are plain numbers, in µM.

Consider the following illustrative entries.
{"item_smiles": "CSc1nc(N)nc(-c2ccccc2C)n1", "Kd [µM]": 4.5}
{"item_smiles": "CSc1nc(N)nc(SCc2ccc(Cl)cc2)n1", "Kd [µM]": 3.7}

Items follow; give Kd for each.
1. Nc1cnccn1
2. Nc1nccc(-c2nccs2)n1

Response:
79
0.57

###

Heat shock protein HSP 90-alpha (Homo sapiens): reported log10 of Kd for various molecules.
All values: base-10 log of Kd in nM.

Consider the following illustrative entries.
{"item_smiles": "Nc1ccncn1", "target": "Heat shock protein HSP 90-alpha (Homo sapiens)", "log10 of Kd": 5.48}
{"item_smiles": "CSc1nc(N)nc(SCCN2CCOCC2)n1", "target": "Heat shock protein HSP 90-alpha (Homo sapiens)", "log10 of Kd": 3.36}
{"item_smiles": "CCCc1nc(N)ncc1C(=O)OCC", "target": "Heat shock protein HSP 90-alpha (Homo sapiens)", "log10 of Kd": 2.53}
{"item_smiles": "Nc1ncc2c(n1)-c1ccoc1CC2", "target": "Heat shock protein HSP 90-alpha (Homo sapiens)", "log10 of Kd": 2.52}
{"item_smiles": "Nc1ncncn1", "target": "Heat shock protein HSP 90-alpha (Homo sapiens)", "log10 of Kd": 4.00}

Here's the next entry for you.
Request: Which value of log10 of Kd has been reported for CSc1nc(N)nc(-c2ccccc2)n1 in the records?
Response: 4.71

###

target: Heat shock protein HSP 90-alpha (Homo sapiens)
measure: IC50 (µM)
One number for each entry, in µM.

Request: Which value of IC50 has been reported for CSc1nc(N)nc(SCc2ccccc2)n1 in the records?
Response: 16
